# Subject Of Test: T1, recombinant FAP protein (BioLegend), biotinylated (Homo sapiens (Human), UniProt Q12884 26-760, Biotinylated (sites not given) for loading on streptavidin sensors. Any vendor tag is not stated in the passages shown.)
# T1 construct: Loaded on streptavidin sensors for BLI; also called biotinylated FAP
# T1 sequence: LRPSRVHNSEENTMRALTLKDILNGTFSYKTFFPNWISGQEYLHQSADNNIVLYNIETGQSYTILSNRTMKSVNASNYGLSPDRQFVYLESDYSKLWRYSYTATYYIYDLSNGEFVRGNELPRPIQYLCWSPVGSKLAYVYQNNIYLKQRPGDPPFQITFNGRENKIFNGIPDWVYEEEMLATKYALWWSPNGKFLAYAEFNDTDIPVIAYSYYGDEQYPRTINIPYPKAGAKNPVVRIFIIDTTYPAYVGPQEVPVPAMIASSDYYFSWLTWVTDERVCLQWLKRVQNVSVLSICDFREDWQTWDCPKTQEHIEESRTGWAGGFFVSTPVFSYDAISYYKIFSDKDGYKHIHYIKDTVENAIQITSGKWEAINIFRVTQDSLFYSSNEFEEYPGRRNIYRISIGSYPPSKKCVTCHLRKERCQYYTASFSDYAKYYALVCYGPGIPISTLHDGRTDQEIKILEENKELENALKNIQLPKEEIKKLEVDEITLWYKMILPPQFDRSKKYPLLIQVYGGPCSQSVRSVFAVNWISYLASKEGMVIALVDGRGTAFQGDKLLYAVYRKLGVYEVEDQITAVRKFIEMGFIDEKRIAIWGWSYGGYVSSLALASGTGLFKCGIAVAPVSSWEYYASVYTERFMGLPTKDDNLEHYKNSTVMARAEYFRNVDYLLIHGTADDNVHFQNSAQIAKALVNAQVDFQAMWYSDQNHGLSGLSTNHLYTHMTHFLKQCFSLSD
# Protocol Description: BLI (Octet RED96), biotinylated FAP on streptavidin sensors
Reported Endpoint: pKd
Please treat pKd as minus the base-10 logarithm of the molar concentration.

Sample answers from the record:
{"Binder": "P-1911: 2PE14_N32H (VHH, also called pET28 PelB-2PE14_N32H) VHH: QVQLQESGGGLVQPGGSLRLSCAASGSTFSIHAVAWYRQAPGKRRELVAGISGGGVTNYPDSVKGRFTISRDNAKNTVYLQMSSLKPEDTAVYYCNLWPPRASPGGRVYWGQGTQVTVSS", "pKd": 8.43}
{"Binder": "P-1915: 2PE14_N32P (VHH, also called pET28 PelB-2PE14_N32P) VHH: QVQLQESGGGLVQPGGSLRLSCAASGSTFSIPAVAWYRQAPGKRRELVAGISGGGVTNYPDSVKGRFTISRDNAKNTVYLQMSSLKPEDTAVYYCNLWPPRASPGGRVYWGQGTQVTVSS", "pKd": 8.93}
{"Binder": "P-1905: 2PE14_opt4 (Q1D_Q5V_P60A_A74S_S82N_K83R_Q108L) (VHH) VHH: DVQLVESGGGLVQPGGSLRLSCAASGSTFSINAVAWYRQAPGKRRELVAGISGGGVTNYADSVKGRFTISRDNSKNTVYLQMNSLRPEDTAVYYCNLWPPRASPGGRVYWGQGTLVTVSS", "pKd": 8.42}
{"Binder": "P-1932: 3PE42_M31L (VHH, also called pET28 PelB-3PE42_M42L) VHH: QVQLQESGGGLVQPGESLRLSCAVSGSTSSLNAMAWYRQAPGKRRELVAGISGGGATNYPDSVKGRFTISRDNAKNTVYLQMSSLKPEDTAVYYCNLWPPRASPGGGVYWGQGTQVTVSS", "pKd": 9.06}
{"Binder": "P-1926: 3PE42_M31E (VHH, also called pET28 PelB-3PE42_M42E) VHH: QVQLQESGGGLVQPGESLRLSCAVSGSTSSENAMAWYRQAPGKRRELVAGISGGGATNYPDSVKGRFTISRDNAKNTVYLQMSSLKPEDTAVYYCNLWPPRASPGGGVYWGQGTQVTVSS", "pKd": 8.73}
{"Binder": "P-1940: 3PE42_M31W (VHH, also called pET28 PelB-3PE42_M42W) VHH: QVQLQESGGGLVQPGESLRLSCAVSGSTSSWNAMAWYRQAPGKRRELVAGISGGGATNYPDSVKGRFTISRDNAKNTVYLQMSSLKPEDTAVYYCNLWPPRASPGGGVYWGQGTQVTVSS", "pKd": 10.02}

In the following, a different binder is considered.
For the binder shown here, P-1930: 3PE42_M31I (VHH, also called pET28 PelB-3PE42_M42I) VHH: QVQLQESGGGLVQPGESLRLSCAVSGSTSSINAMAWYRQAPGKRRELVAGISGGGATNYPDSVKGRFTISRDNAKNTVYLQMSSLKPEDTAVYYCNLWPPRASPGGGVYWGQGTQVTVSS , give the reported pKd.
8.54
